Molecular target: human TREK-1 (Homo sapiens, UniProt O95069)
Construct: expressed in transfected cells
Sequence (O95069 1-426): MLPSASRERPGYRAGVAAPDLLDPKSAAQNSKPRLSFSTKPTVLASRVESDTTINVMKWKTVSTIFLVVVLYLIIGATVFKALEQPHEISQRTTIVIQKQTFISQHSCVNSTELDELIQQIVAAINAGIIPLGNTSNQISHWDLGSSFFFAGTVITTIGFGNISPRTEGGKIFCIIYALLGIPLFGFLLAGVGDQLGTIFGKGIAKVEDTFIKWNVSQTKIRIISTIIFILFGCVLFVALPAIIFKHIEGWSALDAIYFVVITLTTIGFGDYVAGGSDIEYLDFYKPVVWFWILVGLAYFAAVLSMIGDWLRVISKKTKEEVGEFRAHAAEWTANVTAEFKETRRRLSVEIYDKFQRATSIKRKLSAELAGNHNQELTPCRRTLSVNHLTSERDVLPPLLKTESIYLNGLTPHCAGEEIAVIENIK
Experiment: TREK-1 Thallium (Tl+) flux assay, Method 1
Assay type: cell-based
Details: TREK-1 Thallium (Tl+) flux assay; no *^12 (Method 2) mark on these rows
Labelling: IC50 reported below 400 nM becomes YES; at or above becomes NO.

- molecule: "Cc1cc(C#Cc2ccccc2)cnc1NC(=O)c1c(Cl)cnn1CC1COCC1C (stereo not drawn)"
  assayed_target: "human TREK-1 (Homo sapiens, UniProt O95069)"
  assigned_label: "NO"
- molecule: "CC(=O)N1C[C@H]2C[C@H](n3ncc(Cl)c3C(=O)Nc3ncc(C#Cc4ccccc4)cc3C)C[C@H]2C1"
  assayed_target: "human TREK-1 (Homo sapiens, UniProt O95069)"
  assigned_label: "YES"
- molecule: "CC(C)(C)OC(=O)N1CCN(CCn2ncc(Cl)c2C(=O)Nc2ncc(C#Cc3ccccc3)cc2F)CC1"
  assayed_target: "human TREK-1 (Homo sapiens, UniProt O95069)"
  assigned_label: "NO"
- molecule: "CC(=O)N1CCC(n2ncc(Cl)c2C(=O)Nc2ccc(OCc3ccccc3)cc2C)CC1"
  assayed_target: "human TREK-1 (Homo sapiens, UniProt O95069)"
  assigned_label: "NO"
- molecule: "CC(=O)N1CCC2(CC(n3ncc(Cl)c3C(=O)Nc3ncc(C#Cc4ccc(F)cc4)cc3C)C2)C1 (stereo not drawn)"
  assayed_target: "human TREK-1 (Homo sapiens, UniProt O95069)"
  assigned_label: "NO"
- molecule: "CC(C)(C)OC(=O)N[C@H]1CC[C@H](n2ncc(Cl)c2C(=O)Nc2ncc(C#Cc3ccccc3)cc2F)CC1"
  assayed_target: "human TREK-1 (Homo sapiens, UniProt O95069)"
  assigned_label: "NO"
- molecule: "CO[C@@H](C)Cn1ncc(Cl)c1C(=O)Nc1ncc(C#Cc2ccccc2)cc1C"
  assayed_target: "human TREK-1 (Homo sapiens, UniProt O95069)"
  assigned_label: "YES"
- molecule: "CC(C)(C)OC(=O)N1CCCC(n2ncc(Cl)c2C(=O)Nc2ncc(C#Cc3ccccc3)cc2F)CC1 (stereo not drawn)"
  assayed_target: "human TREK-1 (Homo sapiens, UniProt O95069)"
  assigned_label: "YES"

Data request: Hello, I'm reviewing records and need to know if IC50 of CC(=O)N1CC[C@@H](Cn2ncc(Cl)c2C(=O)Nc2ncc(C#Cc3ccc(F)cc3)cc2C)[C@H](F)C1 is below 400 nM. Could you check?
Data returned: NO

Data request: What do you have for CC(=O)N1C[C@H]2C[C@H](n3ncc(Cl)c3C(=O)Nc3ncc(C#Cc4ccc(F)cc4)cc3C)C[C@H]2C1 ?
Data returned: NO

Data request: What do you have for Cc1cc(OCc2ccccc2)ccc1NC(=O)c1c(Cl)cnn1C1CCN(C(=O)C2COCCO2)CC1 (stereo not drawn) ?
Data returned: NO

Data request: What do you have for CC(=O)N1CC[C@@H](n2ncc(Cl)c2C(=O)Nc2ncc(C#Cc3ccccc3)cc2C)C1 ?
Data returned: YES

Data request: What do you have for Cc1cc(-c2cnn(-c3ccc(F)cc3)c2)cnc1NC(=O)c1c(Cl)cnn1C[C@@H]1CCOC1 ?
Data returned: YES

Data request: What do you have for O=C(Nc1ncc(C#Cc2ccc(F)cc2)cc1F)c1c(Cl)cnn1CC1CCOCC1 ?
Data returned: YES
